- targetEntity: T1, human CD3 on CD3+ Jurkat cells (human, UniProt P07766 23-207)
- T1 construct: whole, on cells; Native CD3 complex on cells; the other CD3 chains are not specified for this assay; also called Human CD3+ Jurkat
- T1 sequence (P07766 23-207): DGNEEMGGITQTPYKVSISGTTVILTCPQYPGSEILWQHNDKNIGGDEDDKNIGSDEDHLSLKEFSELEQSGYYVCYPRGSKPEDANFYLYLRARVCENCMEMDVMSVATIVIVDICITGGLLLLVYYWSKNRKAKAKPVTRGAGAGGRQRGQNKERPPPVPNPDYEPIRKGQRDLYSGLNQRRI
- assayName: flow cytometry, 100 nM IgG on CD3+ Jurkat cells, pH 7.4
valueKind: MFI pH 7.4 (MFI)
Use MFI as the unit, but write only the number.

- binder: "SAD10318_P04_C11 (ADI-48615) (antibody, V domains shown, IgG; also called Ab218) VH: QVQLVQSGAEVKKPGASVKVSCKASGFNIKDYYMHWVRQAPGQRLEWMGWIDLENANTIYDAKFQGRVTITRDTSASTAYMELSSLRSEDTAVYYCARDHHGRYFYDVWGQGTLVTVSS VL: DIVMTQSPDSLAVSLGERATINCKSSQSLLNARTGHNHLAWYQQKPGQPPKLLIYWASTRESGVPDRFSGSGSGTDFTLTISSLQAEDVAVYYCKQSYSRRTFGGGTKVEIK"
  unitSymbol: "MFI"
  measuredValue: 37

Entry SAD10319_P03_E08 (ADI-48637) (antibody, V domains shown, IgG; also called Ab21) VH: QVQLVQSGAEVKKPGASVKVSCKASGYTFNDYAMHWVRQAPGQRLEWMGYINGTGATVYSQKFQGRVTITRDTSASTAYMELSSLRSEDTAVYYCARDAYHHYFYDVWSQGTLVTVSS VL: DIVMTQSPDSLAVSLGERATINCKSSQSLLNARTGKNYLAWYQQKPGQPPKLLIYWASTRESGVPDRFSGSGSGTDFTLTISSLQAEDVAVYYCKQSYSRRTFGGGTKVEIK has what MFI pH 7.4?
73

Then what about the binder SAD10319_P02_D06 (ADI-48631) (antibody, V domains shown, IgG; also called Ab11) VH: QVQLVQSGAEVKKPGASVKVSCKASGYTFTDYAMHWVRQAPGQRLEWMGWINAGTGATIYSQKFQGRVTITRDTSASTAYMELSSLRSEDTAVYYCARDAYHHYFYDVWGQGTLVTVSS VL: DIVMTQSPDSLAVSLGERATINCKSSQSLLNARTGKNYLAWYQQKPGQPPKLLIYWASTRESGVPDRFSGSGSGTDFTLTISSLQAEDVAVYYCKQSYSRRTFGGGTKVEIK ?
232
